# Tested on: control sera (pooled serum of ten healthy LUMC hospital workers; commercial negative donor pooled serum from the Dutch bloodbank)
# Assay type: binding, human
# Design: unit not given here
Catalogue of Binding of Control Serum Blood-Bank to Looped peptides of the protein M of SARS-CoV Urbani readings, one per entry.
Give only the figure.

Example entries begin here.
AVYRINWVTGGIAIA: 0.8
ATSRTLSYYKLGASQ: 0.6
SELVIGAVIIRGHLR: 0.6
IKDLPKEITVATSRT: 0.5

Pending sequence:
For the sequence shown here, "WSFNPETNILLNVPL" , give the reported Binding of Control Serum Blood-Bank to Looped peptides of the protein M of SARS-CoV Urbani. 0.6

----------
# Test system: antibodies in sera from SARS patients (sera 1a, 1b, 2, 6, 37, 62, London, SARS-yellow, SARS-green)
# Assay type: binding, human
Sorting guide: entries reporting Binding of serum SARS-yellow to linear peptides of protein X2 beneath 0.5 go in the label 1 pile, the rest go in the label 0 pile.

QSTALQELLIQQWIQ: label 1

Here's an entry: "QFMMSRRRLLACLCK" . Is its Binding of serum SARS-yellow to linear peptides of protein X2 below 0.5? label 1

Given the entry "KLLQTLVLKMLHSSS" , would its reported Binding of serum SARS-yellow to linear peptides of protein X2 be below 0.5? label 1

In the record for "KTHRMCKYTQSTALQ" , is Binding of serum SARS-yellow to linear peptides of protein X2 less than 0.5? label 0

Confirm or reject: Binding of serum SARS-yellow to linear peptides of protein X2 of "SSLTSLLKTHRMCKY" lies strictly below 0.5 label 1

Say whether its Binding of serum SARS-yellow to linear peptides of protein X2 is strictly beneath 0.5. Entry: "SLLKVTAFQHQNSKK" label 1

Given the entry "TAFQHQNSKKTTKLV" , would its reported Binding of serum SARS-yellow to linear peptides of protein X2 be below 0.5? label 0

# TODO verify Binding of serum SARS-yellow to linear peptides of protein X2 < 0.5 strictly for this sequence: "ISPKFTTSLSLHKLL" label 1

Field: below-cutoff. Rule: recorded Binding of serum SARS-yellow to linear peptides of protein X2 strictly less than 0.5. Subject: "QWIQFMMSRRRLLAC" label 0

Consider the sequence "CKYTQSTALQELLIQ" . Is its Binding of serum SARS-yellow to linear peptides of protein X2 strictly less than 0.5? label 0

----------
# Test system: antibodies in sera from SARS patients (sera 1a, 1b, 2, 6, 37, 62, London, SARS-yellow, SARS-green)
# Format: binding, human
// values below are reported Binding of serum 1a to linear peptides of protein X4 of SARS-CoV Urbani
Respond numerically, and do not add a unit to the figure.

ILFLTLIVFTSCELY: 0.7
RQEEVQQELYSPLFL: 0.8
TRHTYQLRARSVSPK: 0.8

Now for another entry.
Return reported Binding of serum 1a to linear peptides of protein X4 of SARS-CoV Urbani; argument: "ARSVSPKLFIRQEEV" 0.7

----------
# System: control sera (pooled serum of ten healthy LUMC hospital workers; commercial negative donor pooled serum from the Dutch bloodbank)
# Assay type: binding, human
# Design: unit not given here
measured quantity: Binding of Control serum LUMC to looped peptides
Note: the reply should be a number with no unit written.

Look up Binding of Control serum LUMC to looped peptides: "LNTPKDHIGTRNPNN" 0.6

// query Binding of Control serum LUMC to looped peptides value for entry "YSTAWLCALGKVLPF" 0.5

Consider the sequence "QIGYYRRATRRVRGG" and give its measured Binding of Control serum LUMC to looped peptides. 0.7

Quick one: Binding of Control serum LUMC to looped peptides for "FVTIYSHLLLVAAGM" ? 0.5

// query Binding of Control serum LUMC to looped peptides value for entry "HSSSLTSLLKTHRMC" 0.5

Returns the measured Binding of Control serum LUMC to looped peptides for the input sequence. Input: "YCCNIVNVSLVKPTV" 0.6

----------
# Test system: rabbit serum obtained by immunizing a rabbit with the SARS-CoV strain Frankfurt 1
# Format: binding
# Design: unit not given here
measured quantity: Binding of a rabbit serum to looped peptides
No unit in the answer, only the number.

Give the measured Binding of a rabbit serum to looped peptides of "YCCNIVNVSLVKPTV" . 0.3

Please report the recorded Binding of a rabbit serum to looped peptides for "RIIMRCWLCWKCKSK" . 0.3

Quick one: Binding of a rabbit serum to looped peptides of "TGIENATFFIFNKLV" ? 0.6

Look up Binding of a rabbit serum to looped peptides for this sequence: "THNYDYCIPYNSVTD" 0.6

Given the sequence "FTEVYYQLESTQITT" , what is its reported Binding of a rabbit serum to looped peptides? 0.5

Request the reported Binding of a rabbit serum to looped peptides associated with "TSLSLHKLLQTLVLK" 0.5

Could you share which Binding of a rabbit serum to looped peptides value was measured for "ILRIGTQVLKTMSLY" ? 0.5

I am curious: what Binding of a rabbit serum to looped peptides value has been reported for "TLFAGTHITMTTVYH" ? 0.5

Given "VTIYSHLLLVAAGME" , state its recorded Binding of a rabbit serum to looped peptides. 0.5

Name the recorded Binding of a rabbit serum to looped peptides for "KLVKDPPNVQIHTID" . 0.4

Tell me the measured Binding of a rabbit serum to looped peptides of "CAYCCNIVNVSLVKP" , please. 0.2

Would you kindly share the measured Binding of a rabbit serum to looped peptides for "HTHNYDYCIPYNSVT" ? 0.6

Given the entry "NVSLVKPTVYVYSRV" , report its measured Binding of a rabbit serum to looped peptides. 0.3

Please report the recorded Binding of a rabbit serum to looped peptides for "LACLCKHKKVSTNLC" . 0.3

Quick one: Binding of a rabbit serum to looped peptides for "LKMLHSSSLTSLLKT" ? 0.4

For the sequence "YFTEVYYQLESTQIT" , what Binding of a rabbit serum to looped peptides is on record? 0.4

Name the reported Binding of a rabbit serum to looped peptides value associated with the sequence "VCWHTHNYDYCIPYN" 0.6

----------
# Tested on: antibodies in sera from SARS patients (sera 1a, 1b, 2, 6, 37, 62, London, SARS-yellow, SARS-green)
# Type: binding, human
# Parameters: unit not given here
Binding of serum 2 to looped/cyclic peptides of protein N of SARS-CoV Urbani values by entry
Enter the number alone.

Give the measured Binding of serum 2 to looped/cyclic peptides of protein N of SARS-CoV Urbani of "GPTDSTDNNQNGGRN" . 0.6

----------
# Test system: rabbit serum obtained by immunizing a rabbit with the SARS-CoV strain Frankfurt 1
# Assay type: binding
# Design: unit not given here
Hi! Just check whether Binding of a rabbit serum to looped peptides is below 0.4. Below gives 1, equal or above gives -1.

GWLVIGVAFLAVFQS: -1
GDGISTPKLKEDYQI: -1
EDYQIGGYSEDRHSG: -1
VHGYFTEVYYQLEST: -1

Lab note: confirm whether the reported Binding of a rabbit serum to looped peptides for this sequence is below 0.4, equality not counting. sequence: "KVSTNLCTHSFRKKQ" 1

Please state whether Binding of a rabbit serum to looped peptides is below 0.4 for "IDNASPASTVHATAT" 1

Hello, is Binding of a rabbit serum to looped peptides of the following sequence strictly smaller than 0.4? "LFAGTHITMTTVYHI" -1

# strict comparison: is reported Binding of a rabbit serum to looped peptides < 0.4? input = "TVYHITVSQIQLSLL" 1

Lab log: compare recorded Binding of a rabbit serum to looped peptides with 0.4; is it strictly lower for "ASPASTVHATATIPL" ? -1

Please state whether Binding of a rabbit serum to looped peptides is below 0.4 for "WIQFMMSRRRLLACL" -1

Is 0.4 strictly greater than the sequence's reported Binding of a rabbit serum to looped peptides? sequence: "ANYFVCWHTHNYDYC" -1

Say whether its Binding of a rabbit serum to looped peptides is strictly beneath 0.4. Entry: "ICNLLLLFVTIYSHL" -1

Check if Binding of a rabbit serum to looped peptides falls below 0.4 for "IQLSLLKVTAFQHQN" . -1

For this sequence, is Binding of a rabbit serum to looped peptides lower than 0.4? "SLVKPTVYVYSRVKN" -1

Check if Binding of a rabbit serum to looped peptides falls below 0.4 for "WLVIGVAFLAVFQSA" . -1

Say whether its Binding of a rabbit serum to looped peptides is strictly beneath 0.4. Entry: "MAISPKFTTSLSLHK" -1

Item "AQPVKIDNASPASTV" : Binding of a rabbit serum to looped peptides beneath 0.4, strictly? -1

Take the sequence "CWHTHNYDYCIPYNS" and say whether its Binding of a rabbit serum to looped peptides is less than 0.4. -1

Please indicate whether the reported Binding of a rabbit serum to looped peptides of "ITMTTVYHITVSQIQ" is strictly below 0.4. 1

Dear reviewer, please state whether "VKNLNSSEGVPDLLV" has Binding of a rabbit serum to looped peptides strictly beneath 0.4. -1

Item "LLKVTAFQHQNSKKT" : Binding of a rabbit serum to looped peptides beneath 0.4, strictly? 1

Item "RRLLACLCKHKKVST" : Binding of a rabbit serum to looped peptides beneath 0.4, strictly? 1
